Biological target: Protein kinase C (PKC)
Experiment: Inhibitory activity against protein kinase C (PKC)
Assay type: protein assay, Homo sapiens
Observable: IC50 (µM)

compound="O=C1OC2COC(=O)c3cc(O)c(O)c(O)c3-c3c(O)c(O)c4oc(=O)c5c(c(O)c(O)c6oc(=O)c3c4c65)-c3c(cc(O)c(O)c3O)C(=O)OC2C2OC(=O)c3c(c(O)c(O)c(O)c3-c3c(O)c(O)c(O)c4c3C(=O)OC2[C@@H]4O)-c2c1cc(O)c(O)c2O (some centres undefined)" value_qualifier== numeric_value=4
compound=O=C(O[C@H]1[C@H](O)C[C@](OC(=O)c2cc(O)c(O)c(O)c2)(C(=O)O)C[C@H]1O)c1cc(O)c(O)c(O)c1 value_qualifier=> numeric_value=100
compound="O=C(OC1COC(=O)c2cc(O)c(O)c(O)c2-c2c(cc(O)c(O)c2O)C(=O)OC1C1OC(=O)c2cc(O)c(O)c(O)c2-c2c(O)c(O)c(O)c3c2C(=O)OC1[C@@H]3O)c1cc(O)c(O)c(O)c1 (some centres undefined)" value_qualifier== numeric_value=11
compound=O=C(O)C[C@@H]1C(=O)O[C@H]2[C@@H]3OC(=O)c4cc(O)c(O)c(O)c4-c4c(cc(O)c(O)c4O)C(=O)OC[C@H]2O[C@@H](OC(=O)c2cc(O)c(O)c(O)c2)[C@@H]3OC(=O)c2cc(O)c(O)c3c2[C@H]1[C@H](O)C(=O)O3 value_qualifier== numeric_value=30

---

IC50 values, listed per item
Target: Protein kinase C (PKC)
Assay: Inhibitory activity against protein kinase C (PKC)
Type: protein assay, Homo sapiens
Observable: IC50 (µM)

compound=O=C(O[C@@H]1C[C@](OC(=O)c2cc(O)c(O)c(O)c2)(C(=O)O)C[C@@H](OC(=O)c2cc(O)c(O)c(O)c2)[C@H]1OC(=O)c1cc(O)c(O)c(O)c1)c1cc(O)c(O)c(O)c1 observable=IC50 unit_info=µM value_qualifier== numeric_value=64
compound="Oc1cc(O)c2c(c1)O[C@H](c1ccc(O)c(O)c1)C(O)C2 (stereo not given in full)" observable=IC50 unit_info=µM value_qualifier=> numeric_value=100
compound="Oc1cc(O)c2c(c1)O[C@H](c1ccc(O)c(O)c1)[C@H](O)[C@H]2c1c(O)cc(O)c2c1O[C@@]1(c3ccc(O)c(O)c3)Oc3cc(O)c4c(c3C2[C@H]1O)O[C@H](c1ccc(O)c(O)c1)[C@H](O)C4c1c(O)cc(O)c2c1O[C@H](c1ccc(O)c(O)c1)[C@H](O)C2 (stereo not given in full)" observable=IC50 unit_info=µM value_qualifier== numeric_value=15
compound=O=C(OC[C@H]1O[C@@H](OC(=O)c2cc(O)c(O)c(O)c2)[C@H](O)[C@@H](O)[C@@H]1O)c1cc(O)c(O)c(O)c1 observable=IC50 unit_info=µM value_qualifier=> numeric_value=100
compound=O=C(O[C@@H]1O[C@@H]2COC(=O)c3cc(Oc4c(C(=O)O)cc(O)c(O)c4O)c(O)c(O)c3-c3c(cc(O)c(O)c3O)C(=O)O[C@H]([C@H]1O)[C@@H]2O)c1cc(O)c(O)c(O)c1 observable=IC50 unit_info=µM value_qualifier== numeric_value=20

---

Molecular target: Protein kinase C, PKC; classical/novel (Homo sapiens) (UniProt O94806+P17252+P05129+Q05655+P05771+Q02156+P24723+Q15139+Q04759)
Assay: Displacement of phorbol [3H]PDBu from protein kinase C; A - Did displace phorbol (PDBu) at 50 uM or less
Type: protein assay
Observable: Phorbol displacement

compound="O=C1O[C@H]2[C@H](OC(=O)c3cc(O)c(O)c(O)c3)[C@@H](OC(=O)c3cc(O)c(O)c4c3C3C1=CC(=O)C(O)(O)C3(O)O4)[C@@H](OC(=O)c1cc(O)c(O)c(O)c1)O[C@@H]2COC(=O)c1cc(O)c(O)c(O)c1 (some centres not stated)" result="< 50 µM"
compound="CC1(C)CC[C@]2(C(=O)O[C@@H]3O[C@H](CO)[C@@H](O)[C@H](O)[C@H]3O)CC[C@]3(C)C(=CC[C@@H]4[C@@]5(C)C[C@@H](O)[C@@H]6OC(=O)c7cc(O)c(O)c(O)c7-c7c(cc(O)c(O)c7O)C(=O)OC[C@@]6(CO)C5CC[C@]43C)C2C1 (some centres not stated)" result="< 50 µM"
